- Tested on: HCT-116 colon
- PROCEDURE TEXT: NCI-60 one-dose screen, 48 h (100 = growth as untreated, 0 = no growth, -100 = all killed)
- RECORDED CONDITIONS: 10 µM unless noted
Compounds without any hit were thinned out: in the full panel of roughly 83,000, 20% have a hit.
// boundary case: growth equal to 50% maps to not fulfilled; strictly smaller maps to fulfilled

Check out these entries, answers already filled in.
In [3]: df
Out[3]:
                                   compound       category
0  C[C@]12CC[C@@H]3c4ccc(O)c([N+](=O)[O-])c4CC[C@H]3[C@@H]1CC[C@@H]2NS(=O)(=O)c1cccc(Br)c1      fulfilled
1           CCCCN(CCCC)CCCOC(=O)c1ccc(N)cc1  not fulfilled
2  COc1ccc(/C=N\Nc2ccc([N+](=O)[O-])cn2)cc1OC      fulfilled

**Q:** A record lists COc1cc(/C=C/C(=O)c2ccc(F)cc2)ccc1OCCCCCOc1cc2c(cc1OC)C(=O)N1CCCC1C=N2 (stereo unspecified) . Is its growth below 50%?
**A:** fulfilled

**Q:** Can you handle COc1ccc(-c2cnnn2-c2cc(OC)c3c(c2)OCO3)cc1 next?
**A:** fulfilled

**Q:** And what about the compound O=C(C(Br)Br)C(Br)C(Br)c1ccccc1 (stereo unspecified) ?
**A:** fulfilled

**Q:** Moving on to c1cncc(CNc2ccccc2-c2nnc(Nc3ccc4c(c3)OCO4)o2)c1
**A:** fulfilled

**Q:** Item: NNC(=O)C1CC2c3ccccc3C1c1ccccc12 (stereo unspecified)
**A:** not fulfilled

**Q:** O=C1Nc2ccccc2C12Nc1cc(Cl)ccc1S2 (stereo unspecified) , same question.
**A:** not fulfilled

**Q:** Try this compound next: CCN(CC)CCNc1ccc(Cl)cc1Cl
**A:** not fulfilled

**Q:** Try the compound COc1cc(-c2cc(C(=O)Nc3nc4ccccc4s3)nc3cc(-c4ccccc4)nn23)cc(OC)c1OC
**A:** not fulfilled

**Q:** // query: COc1cccc(/C=C2\COc3ccc(O)c(O)c3C2=O)c1OC
**A:** fulfilled

**Q:** Input O=C1NCN(CCO)CN1
**A:** not fulfilled

**Q:** Now give it for COc1cc(OC)c2sc(-c3ccc(-n4cncc4-c4ccc(N)cc4)cc3)nc2c1 too.
**A:** not fulfilled

**Q:** Would you mind doing CCOc1cc(C(C)(C)C)ccc1C1=N[C@H](c2ccc(Cl)cc2)[C@H](c2ccc(Cl)cc2)N1C(=O)N1CCN(CC#Cc2cccc3c2CN([C@@H]2CCC(=O)NC2=O)C3=O)CC1 as well?
**A:** fulfilled

**Q:** Same read-out for Cc1cc(C(C)(C)c2cc(C)c(O)c(CN(C)C)c2)cc(CN(C)C)c1O ?
**A:** not fulfilled

**Q:** Ok, now CCC(C)CC(CC)NCCN1CCN(C(CC)CC(C)CC)C1=S (stereo unspecified)
**A:** fulfilled

**Q:** Param item: Nc1ccc(S(=O)(=O)Nc2ncccn2)cc1
**A:** not fulfilled

**Q:** Repeat for the following compound: CCCCn1c(Cc2ccc(Cl)cc2)nc2cc(OC)c(OC)cc2c1=O
**A:** not fulfilled

**Q:** CN(C)c1cccc2c(S(=O)(=O)N[C@H]3CC[C@H]4[C@@H]5CCc6cc(O)ccc6[C@H]5CC[C@]34C)cccc12 , same question.
**A:** fulfilled

**Q:** Same lookup for Cc1nn(-c2ccccc2)c2nc3c(nc12)C(=O)CCC3 , please.
**A:** not fulfilled
